# target: GSK3α (GST-full length GSK3α) (Homo sapiens (Human))
# Sequence (P49840 whole entry): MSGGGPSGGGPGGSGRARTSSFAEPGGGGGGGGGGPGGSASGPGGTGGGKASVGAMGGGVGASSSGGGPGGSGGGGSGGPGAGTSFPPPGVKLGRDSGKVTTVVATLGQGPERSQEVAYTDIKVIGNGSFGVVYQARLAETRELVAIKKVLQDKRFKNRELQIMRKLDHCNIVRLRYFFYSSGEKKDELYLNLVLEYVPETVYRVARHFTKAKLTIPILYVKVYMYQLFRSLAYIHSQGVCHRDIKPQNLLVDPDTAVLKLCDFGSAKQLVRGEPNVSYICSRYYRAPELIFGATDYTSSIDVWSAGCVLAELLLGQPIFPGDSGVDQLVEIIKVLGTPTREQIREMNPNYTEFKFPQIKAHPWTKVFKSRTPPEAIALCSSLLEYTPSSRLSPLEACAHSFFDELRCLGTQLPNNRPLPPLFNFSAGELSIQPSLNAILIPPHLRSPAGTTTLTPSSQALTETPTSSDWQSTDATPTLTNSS
# measurement protocol: GSK3α TR-FRET kinase assay
# Type: biochemical
# stated conditions: 1 nM GSK3α, 4 μM ATP, 30 minute preincubation; geometric mean; read-out: GSK3-A TR-FRET BIOCHEMICAL (TR-FRET); GMean; IC50
The entries below come with measured IC50 values attached.

The following compounds have reported results that may help.
CCn1ccc(S(=O)(=O)N2CCC3(CC2)C2=C(CC(C)(C)NC2=O)Nc2n[nH]cc23)n1 [Compound 947836]    ≤ 100 nM
CCC1(c2cccc(N3CCOCC3)c2)C2=C(CC(C)(C)NC2=O)Nc2n[nH]c(C(F)(F)F)c21 (stereo not drawn) [Compound 947863]    ≤ 100 nM
CCc1cnccc1-c1cccc(C2(CC)C3=C(CC(C)(C)NC3=O)Nc3n[nH]cc32)c1 (stereo not drawn) [Compound 948657]    > 5000 nM
CC[C@]1(c2cccc(Br)c2)C2=C(CC(C)(C)[C@@H](F)C2=O)Nc2n[nH]cc21 [Compound 835313]    > 5000 nM
CCC1(c2cccc(N3CCOCC3)c2)C2=C(CC(C)(C)CC2=O)Nc2n[nH]c(C)c21 (stereo not drawn) [Compound 874312]    ≤ 100 nM

Shifting focus to the compound that follows.
Ask: Given CC[C@@]1(c2ccccc2)C2=C(CC(C)(C)CC2=O)Nc2n[nH]c(Br)c21 [Compound 792340] , respond with its IC50.
Reply: ≤ 100 nM

* * *

# target: GSK3b (GST-full length GSK3b) (Homo sapiens (Human), UniProt P49841)
# Sequence (P49841 whole entry): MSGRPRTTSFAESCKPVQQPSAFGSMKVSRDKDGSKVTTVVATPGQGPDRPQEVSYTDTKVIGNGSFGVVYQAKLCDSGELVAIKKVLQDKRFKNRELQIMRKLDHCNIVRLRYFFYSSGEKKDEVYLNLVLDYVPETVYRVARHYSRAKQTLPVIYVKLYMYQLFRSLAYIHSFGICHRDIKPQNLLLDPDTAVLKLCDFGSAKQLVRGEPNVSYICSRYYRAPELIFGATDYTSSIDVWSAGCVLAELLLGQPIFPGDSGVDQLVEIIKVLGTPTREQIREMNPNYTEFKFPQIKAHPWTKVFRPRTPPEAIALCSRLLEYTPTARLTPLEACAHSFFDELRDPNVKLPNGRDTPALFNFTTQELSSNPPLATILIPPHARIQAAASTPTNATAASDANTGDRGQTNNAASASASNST
# measurement protocol: GSK3b TR-FRET kinase assay
# Type: biochemical
# stated conditions: 1 nM GSK3b, 2 μM ATP, 30 minute preincubation; geometric mean; read-out: GSK3-B TR-FRET BIOCHEMICAL (TR-FRET); GMean; IC50
pIC50: −log10 of the molar value.
endpoint: pIC50

CCC1(c2cccc(-c3ccncc3C)c2)C2=C(CC(C)(COC)NC2=O)Nc2n[nH]cc21 (mixture of isomers) [Compound 948127]    < 5.30
CC1(C)CC(=O)C2=C(C1)Nc1n[nH]cc1C2(C)c1cccc(Br)c1 (stereo not drawn) [Compound 789277]    6.00 to 7.00
CC[C@]1(c2ccccc2)C2=C(C[C@](C)(C(F)(F)F)CC2=O)Nc2n[nH]cc21 [Compound 819569]    5.30 to 6.00
CCC1(c2cccc(C(F)(F)F)c2)C2=C(CCN(c3ccc(F)cc3)C2=O)Nc2n[nH]cc21 (stereo not drawn) [Compound 947748]    6.00 to 7.00
CCC1(c2cccc(C(F)(F)F)c2)C2=C(CC(C)(C)CC2=O)Nc2n[nH]c(Br)c21 (stereo not drawn) [Compound 802358]    ≥ 7.00

Ask: Given CC[C@@]1(c2cccc(-c3cc(OC)nc4ccccc34)c2)C2=C(CC(C)(C)NC2=O)Nc2n[nH]cc21 [Compound 948647] , respond with its pIC50.
Reply: < 5.30

Ask: Given CCC1(c2cccc(Br)c2)C2=C(CC(C)CC2=O)Nc2n[nH]c(C(F)(F)F)c21 (stereo not drawn) [Compound 826715] , respond with its pIC50.
Reply: ≥ 7.00

Ask: Given CCC1(c2cccc(-c3ccccc3)c2)C2=C(CC(C)(C)CC2=O)Nc2n[nH]cc21 (stereo not drawn) [Compound 789514] , respond with its pIC50.
Reply: 6.00 to 7.00

Ask: Given CCC1(c2ccccc2)C2=C(CC(C)(C)CC2=O)Nc2n[nH]c(Br)c21 (stereo not drawn) [Compound 789459] , respond with its pIC50.
Reply: ≥ 7.00

Ask: Given CC[C@]1(c2ccccc2)C2=C(C[C@@](C)(C(F)(F)F)CC2=O)Nc2n[nH]cc21 [Compound 819570] , respond with its pIC50.
Reply: < 5.30

Ask: Given CCC1(c2cccc(-c3ccnc(C)c3C)c2)C2=C(CC(C)(C)NC2=O)Nc2n[nH]c(C)c21 (stereo not drawn) [Compound 947399] , respond with its pIC50.
Reply: 5.30 to 6.00

Ask: Given CC[C@@]1(c2ccccc2)C2=C(CC3(CC3)CC2=O)Nc2n[nH]cc21 [Compound 790615] , respond with its pIC50.
Reply: 6.00 to 7.00

Ask: Given CC1(C)CC(=O)C2=C(C1)Nc1n[nH]cc1C2(C)c1cccc(-c2ccncc2)c1 (stereo not drawn) [Compound 790730] , respond with its pIC50.
Reply: 6.00 to 7.00

Ask: Given CC[C@]1(c2cccc(-c3ccncc3C)c2)C2=C(CC(C)(C)NC2=O)Nc2n[nH]c(C)c21 [Compound 947409] , respond with its pIC50.
Reply: < 5.30

Ask: Given CC[C@@]1(c2ccc(C)cc2)C2=C(CC(C)(C)CC2=O)Nc2n[nH]cc21 [Compound 789457] , respond with its pIC50.
Reply: 5.30 to 6.00

* * *

# target: GSK3b (GST-full length GSK3b) (Homo sapiens (Human), UniProt P49841)
# measurement protocol: GSK3b TR-FRET kinase assay
# Type: biochemical
# stated conditions: 1 nM GSK3b, 2 μM ATP, 30 minute preincubation; read-out: GSK3-B TR-FRET BIOCHEMICAL (TR-FRET); IC50
The entries below come with measured IC50 values attached.

The following compounds have reported results that may help.
CC1(C)CC(=O)C2=C(C1)Nc1n[nH]cc1C21COC2(CN(C(=O)c3ccccc3)C2)C1 (centres unmarked) [Compound 917231]    ≤ 100 nM
CC[C@@]1(c2cccc(C(F)(F)F)c2)C2=C(CC3(CCC3)NC2=O)Nc2n[nH]cc21 [Compound 914308]    ≤ 100 nM
CCC1(c2cccc(C(F)(F)F)c2)C2=C(CCN(C(C)C)C2=O)Nc2n[nH]cc21 (centres unmarked) [Compound 825755]    100 to 1000 nM
CC[C@]1(c2cccc(C(F)(F)F)c2)C2=C(CN(C)C2=O)Nc2n[nH]cc21 [Compound 945368]    > 5000 nM
CC1(C)CC(=O)C2=C(C1)Nc1n[nH]cc1C21COC2(CCC2)C1 (centres unmarked) [Compound 911973]    100 to 1000 nM
CC(=O)N1CC2(C1)C[C@]1(CO2)C2=C(CC(C)(C)CC2=O)Nc2n[nH]cc21 [Compound 926861]    ≤ 100 nM
CC1(C)CC(=O)C2=C(C1)Nc1n[nH]cc1C21CC2(COC2)C1 [Compound 912168]    > 5000 nM

Shifting focus to the compound that follows.
Ask: Given CC[C@@]1(c2cccc(C(F)(F)F)c2)C2=C(CCN(C(C)(C)C)C2=O)Nc2n[nH]cc21 [Compound 945633] , respond with its IC50.
Reply: > 5000 nM

* * *

# target: GSK3b (GST-full length GSK3b) (Homo sapiens (Human), UniProt P49841)
# measurement protocol: GSK3b TR-FRET kinase assay
# Format: biochemical
# stated conditions: 1 nM GSK3b, 2 μM ATP, 30 minute preincubation; geometric mean; read-out: GSK3-B TR-FRET BIOCHEMICAL (TR-FRET); GMean; IC50
pIC50: −log10 of the molar value.
endpoint: pIC50

CC[C@]1(c2cccc(-c3cnn(C)c3C)c2)C2=C(CC(C)(C)NC2=O)Nc2n[nH]c(C(F)(F)F)c21 [Compound 947807]    6.00 to 7.00
CCC1(c2cccc(-c3ccnc4c3CCC4)c2)C2=C(CC(C)(C)NC2=O)Nc2n[nH]c(C(F)(F)F)c21 (stereo not drawn) [Compound 947862]    ≥ 7.00
CCC1(c2cccc(N3CCOCC3)c2)C2=C(CC(C)(C)CC2=O)Nc2n[nH]c(C(F)(F)F)c21 (stereo not drawn) [Compound 810507]    ≥ 7.00

Ask: Given CC[C@]1(c2ccccc2)C2=C(C[C@@]3(CCCOC3)CC2=O)Nc2n[nH]cc21 [Compound 816876] , respond with its pIC50.
Reply: < 5.30

Ask: Given CC[C@@]1(c2ccccc2)C2=C(C[C@@](C)(COC)CC2=O)Nc2n[nH]cc21 [Compound 816875] , respond with its pIC50.
Reply: 5.30 to 6.00

Ask: Given CC[C@]1(c2ccccc2)C2=C(CC(C)(C)[C@@H](F)C2=O)Nc2n[nH]cc21 [Compound 826766] , respond with its pIC50.
Reply: 6.00 to 7.00

Ask: Given CC[C@]1(c2cccc(C(F)(F)F)c2)C2=C(CCN(c3ccc(F)cc3)C2=O)Nc2n[nH]cc21 [Compound 948225] , respond with its pIC50.
Reply: < 5.30

* * *

# target: GSK3α (GST-full length GSK3α) (Homo sapiens (Human))
# measurement protocol: GSK3α TR-FRET kinase assay
# Type: biochemical
# stated conditions: 1 nM GSK3α, 4 μM ATP, 30 minute preincubation; geometric mean; read-out: GSK3-A TR-FRET BIOCHEMICAL (TR-FRET); GMean; IC50
# Protocol: TR-FRET Assay: The assay was performed in a white, 384 well, low volume, flat bottom plate (Grenier). After a 30 minute preincubation in assay buffer with the indicated concentration of compound, the kinase activity was initiated by the addition of the substrates. […] After 60 min at room temperature the plate was read on Envision plate reader using Ex: 340 nm, Em: 615 nm and […]. The normalized 665/615 Signal ratio versus log compound concentration was analyzed by XLFIT to yield IC50 values.
pIC50: −log10 of the molar value.
The entries below come with measured pIC50 values attached.

Ask: Given CC[C@]1(c2cccc(-c3c(C)nn(C)c3C)c2)C2=C(CC(C)(C)NC2=O)Nc2n[nH]c(C)c21 , respond with its pIC50.
Reply: 6.00 to 7.00
